Here, each record is paired with measured DC50 data.
# target-or-system: RET(KD: 658-1114 G810R) (Homo sapiens, UniProt P07949, G810R)
# Construct: 658-1114; expressed in transfected cells; host or cells: 293T.165 (293T cells, generated in-house)
# Sequence (P07949 658-1114 G810R): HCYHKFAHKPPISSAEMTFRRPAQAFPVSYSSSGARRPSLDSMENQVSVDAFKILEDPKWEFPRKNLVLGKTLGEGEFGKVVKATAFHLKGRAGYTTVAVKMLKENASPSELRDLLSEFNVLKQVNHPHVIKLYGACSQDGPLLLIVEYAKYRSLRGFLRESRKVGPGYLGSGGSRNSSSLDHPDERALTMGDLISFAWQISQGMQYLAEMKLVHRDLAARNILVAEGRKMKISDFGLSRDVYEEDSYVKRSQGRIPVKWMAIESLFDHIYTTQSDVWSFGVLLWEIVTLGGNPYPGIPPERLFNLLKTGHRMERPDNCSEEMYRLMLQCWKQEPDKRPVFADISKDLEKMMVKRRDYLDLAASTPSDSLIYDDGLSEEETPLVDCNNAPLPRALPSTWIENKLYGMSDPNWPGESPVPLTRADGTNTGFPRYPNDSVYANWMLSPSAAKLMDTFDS
# experiment-notes: HiBiT-Degradation, RET G810R degradation assay (Nano-Glo HiBiT Lytic), 293T.165 cells
# Format: cell-based
# applied-conditions: 6.0 hours, half-maximal degradation concentration, read-out: 293T.165 RET(KD: 658-1114 G810R) 6.0 hours (DC50)

A selection of reference data follows.
[
  {
    "molecule": "N#Cc1cnn2cc(-c3cnn(C4CCN(C(=O)CC5(O)CCN(c6ccc(NC7CCC(=O)NC7=O)cc6F)CC5)CC4)c3)nc(-c3ccc(N4CCC(Oc5ccccn5)CC4)nc3)c12 (centres unmarked)",
    "DC50": "< 50 nM"
  },
  {
    "molecule": "CC(=O)N1CCN(c2ccc(-c3cc(-c4cnn(C5CCN(C(=O)CN6CCC(c7ccc(NC8CCC(=O)NC8=O)cc7)CC6)CC5)c4)cn4ncc(C#N)c34)cn2)CC1 (centres unmarked)",
    "DC50": "< 100 nM"
  },
  {
    "molecule": "CCC1(NC(=O)C(C)C)CCN(c2ccc(-c3cc(-c4cnn(C5CCN(C(=O)CN6CCC(c7ccc(NC8CCC(=O)NC8=O)cc7F)CC6)CC5)c4)cn4ncc(C#N)c34)cn2)CC1 (centres unmarked)",
    "DC50": "< 50 nM"
  },
  {
    "molecule": "CC(C)NC(=O)C1(C)CCN(c2ccc(-c3cc(-c4cnn(C5CCN(C(=O)CN6CCC(c7ccc(NC8CCC(=O)NC8=O)cc7F)CC6)CC5)c4)cn4ncc(C#N)c34)cn2)CC1 (centres unmarked)",
    "DC50": "< 50 nM"
  }
]

Now consider a different molecule.
Entry CCC1(C(=O)NC2CCC2)CCN(c2ccc(-c3nc(-c4cnn([C@H]5CC[C@H](N6CCN(c7cc(OC)c(N[C@H]8CCC(=O)NC8=O)cc7F)CC6)CC5)c4)cn4ncc(C#N)c34)cn2)CC1 (single isomer, unassigned) — recorded DC50 = < 50 nM

====

# target-or-system: RET(KD: 658-1114 G810R) (Homo sapiens, UniProt P07949, G810R)
# Construct: 658-1114; expressed in transfected cells; host or cells: 293T.165 (293T cells, generated in-house)
# experiment-notes: HiBiT-Degradation, RET G810R degradation assay (Nano-Glo HiBiT Lytic), 293T.165 cells
# Format: cell-based
property: 293T.165 RET(KD: 658-1114 G810R) 6.0 hours (IP) [nM]

[
  {
    "compound": "CC(C)CC(=O)N1CCN(c2ccc(-c3nc(-c4cnn(C5CCN(C(=O)CC6CCN(c7ccc(NC8CCC(=O)NC8=O)cc7F)CC6)CC5)c4)cn4ncc(C#N)c34)cn2)CC1 (stereo not shown)",
    "observed-measurement": "++++ (<50 nM = ++++)"
  },
  {
    "compound": "CCC1(c2ncccn2)CCN(c2ccc(-c3nc(-c4cnn([C@H]5CC[C@H](N6CCC(c7ccc(N[C@@H]8CCC(=O)NC8=O)cc7F)CC6)CC5)c4)cn4ncc(C#N)c34)cn2)CC1 (single isomer, unassigned)",
    "observed-measurement": "++++ (<50 nM = ++++)"
  },
  {
    "compound": "CCC1(C(=O)NC2CCCC2)CCN(c2ccc(-c3nc(-c4cnn([C@H]5CC[C@H](N6CCC(c7ccc(N[C@@H]8CCC(=O)NC8=O)cc7F)CC6)CC5)c4)cn4ncc(C#N)c34)cn2)CC1",
    "observed-measurement": "++++ (<50 nM = ++++)"
  }
]

====

# target-or-system: RET(KD: 658-1114 G810R) (Homo sapiens, UniProt P07949, G810R)
# Construct: 658-1114; expressed in transfected cells; host or cells: 293T.165 (293T cells, generated in-house)
# experiment-notes: HiBiT-Degradation, RET G810R degradation assay (Nano-Glo HiBiT Lytic), 293T.165 cells
# Type: cell-based
# applied-conditions: HiBiT-Degradation
property: 293T.165 RET(KD: 658-1114 G810R) 6.0 hours (Emax)

[
  {
    "molecule": "CCC1(C(=O)NC2CCC2)CCN(c2ccc(-c3cc(-c4cnn(C5CCN(C(=O)CN6CCC(c7ccc(NC8CCC(=O)NC8=O)cc7F)CC6)CC5)c4)cn4ncc(C#N)c34)cn2)CC1 (centres unmarked) [Compound 8]",
    "target-or-system": "RET(KD: 658-1114 G810R) (Homo sapiens, UniProt P07949, G810R)",
    "observed-measurement": "++++ (< 30% = ++++)"
  },
  {
    "molecule": "N#Cc1cnn2cc(-c3ccc(N4CCN(C(=O)CC5(O)CCN(c6ccc(NC7CCC(=O)NC7=O)cc6F)CC5)CC4)cc3)cc(-c3ccc(N4CCN(C(=O)Cc5ccc(F)cn5)CC4)nc3)c12 (centres unmarked) [Compound 26]",
    "target-or-system": "RET(KD: 658-1114 G810R) (Homo sapiens, UniProt P07949, G810R)",
    "observed-measurement": "+++ (<50% = +++)"
  },
  {
    "molecule": "CC(C)(C)NC(=O)C1(C)CCN(c2ccc(-c3cc(-c4ccc(N5CCN(C(=O)CN6CCC(c7ccc(NC8CCC(=O)NC8=O)cc7F)CC6)CC5)cc4)cn4ncc(C#N)c34)cn2)CC1 (centres unmarked) [Compound 25]",
    "target-or-system": "RET(KD: 658-1114 G810R) (Homo sapiens, UniProt P07949, G810R)",
    "observed-measurement": "+++ (<50% = +++)"
  },
  {
    "molecule": "CC(C)NC(=O)C1(C)CCN(c2ccc(-c3cc(-c4ccc(N5CCN(C(=O)CN6CCC(c7ccc(NC8CCC(=O)NC8=O)cc7F)CC6)CC5)cc4)cn4ncc(C#N)c34)cc2)CC1 (centres unmarked) [Compound 50]",
    "target-or-system": "RET(KD: 658-1114 G810R) (Homo sapiens, UniProt P07949, G810R)",
    "observed-measurement": "++++ (< 30% = ++++)"
  }
]

Could you now consider this next molecule?
GET /value?item= CC(=O)N1CCN(c2ccc(-c3cc(-c4cnn(C5CCN(C(=O)CN6CCC(c7ccc(NC8CCC(=O)NC8=O)cc7)CC6)CC5)c4)cn4ncc(C#N)c34)cn2)CC1 (centres unmarked) [Compound 42] &field=293T.165 RET(KD: 658-1114 G810R) 6.0 hours (Emax) returns +++ (<50% = +++)

====

Emax reference
# target-or-system: RET(KD: 658-1114 G810R) (Homo sapiens, UniProt P07949, G810R)
# Construct: 658-1114; expressed in transfected cells; host or cells: 293T.165 (293T cells, generated in-house)
# experiment-notes: HiBiT-Degradation, RET G810R degradation assay (Nano-Glo HiBiT Lytic), 293T.165 cells
# Type: cell-based
# applied-conditions: 6.0 hours, % remaining protein, read-out: 293T.165 RET(KD: 658-1114 G810R) 6.0 hours (Emax)
# Procedure: Dulbecco's modified Eagle medium (DMEM) no-phenol red media and fetal bovine serum (FBS) were purchased from Gibco (Grand Island, NY, USA). […] RET wild-type (WT) and G810R degradation were assessed using the Nano-Glo® HiBiT Lytic assay (Promega, Medison, WI, USA). […] Luminescence signal was measured using an EnVision™ Multimode plate reader (Perkin Elmer, Santa Clara, CA, USA). […]

[
  {
    "molecule": "CCC1(C(=O)NC(C)C)CCN(c2ccc(-c3nc(-c4cnn([C@H]5CC[C@H](N6CCC(c7ccc(NC8CCC(=O)NC8=O)cc7F)CC6)CC5)c4)cn4ncc(C#N)c34)cn2)CC1 (single isomer, unassigned)",
    "Emax": "< 30%"
  }
]

Measured Emax, CCC1(C(=O)NC2CCC2)CCN(c2ccc(-c3nc(-c4cnn(C5CCN([C@@H]6CCN(c7ccc(N[C@@H]8CCC(=O)NC8=O)cc7F)CC6(F)F)CC5)c4)cn4ncc(C#N)c34)cn2)CC1 (single isomer, unassigned) : < 30%

Where do these numbers come from? They come from patent US12661410B2.
